Reference source: patent US10793568B2

SYSTEM: human Farnesoid X receptor ligand-binding domain/Gal4 DNA binding domain chimera (Homo sapiens (Human), UniProt Q96RI1)
Sequence (Q96RI1 262-486, change not shown): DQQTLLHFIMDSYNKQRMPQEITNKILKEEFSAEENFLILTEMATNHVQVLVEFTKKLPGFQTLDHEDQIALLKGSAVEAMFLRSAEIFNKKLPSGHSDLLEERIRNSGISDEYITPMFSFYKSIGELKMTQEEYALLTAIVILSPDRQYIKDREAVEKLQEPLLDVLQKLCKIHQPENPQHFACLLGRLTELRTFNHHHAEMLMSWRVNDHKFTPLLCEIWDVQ
Sequence (P04386 1-147 partner): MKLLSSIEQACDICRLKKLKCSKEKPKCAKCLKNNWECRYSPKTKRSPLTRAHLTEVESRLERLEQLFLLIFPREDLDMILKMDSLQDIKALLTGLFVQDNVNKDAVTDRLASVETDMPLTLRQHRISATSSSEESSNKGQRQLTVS
MEASUREMENT_PROTOCOL: Cell-based assay of FXR activation (FXR-UAS-bla HEK 293T beta-lactamase reporter)
CONDITION_CONTEXT: cellular FXR beta-lactamase reporter assay, FXR-UAS-bla HEK 293T cells, 16 h; pEC50 = -log EC50
QUANTITY: pEC50
To interpret pEC50, take it as minus log10 of a concentration measured in moles per litre.

Q: Can you share its pEC50? I mean this compound: O=C(NS(=O)(=O)C1CC1)c1ccc(N2C(=O)[C@@H]3C[C@H]2C[C@H]3OCc2c(-c3c(Cl)cccc3Cl)noc2C2CC2)cc1F [Compound I-331]
A: 9.50

Q: Data request, read-out pEC50, for O=C(O)C1(c2ccc(N3C[C@@H]4C[C@H]3C[C@H]4OCc3c(-c4c(Cl)cccc4Cl)noc3C3CC3)cc2)CCC1 [Compound I-150]
A: 7.60

Q: Value lookup for pEC50; key = CC(C)CCS(=O)(=O)NC(=O)c1ccc(N2C[C@@H]3C[C@H]2C[C@H]3OCc2c(-c3c(Cl)cccc3Cl)noc2C2CC2)c(F)c1 [Compound I-190]
A: 10.20

Q: Can you look up the measured pEC50 of O=C(O)c1ccc(C2CC2)cc1N1C(=O)[C@@H]2C[C@H]1C[C@H]2OCc1c(-c2c(Cl)cccc2Cl)noc1C1CC1 [Compound I-320] for me?
A: 7.70

Q: Look up pEC50 for this compound: COCC(=O)NCCCCCCCCCCS(=O)(=O)NC(=O)c1ccc(N2C[C@@H]3C[C@H]2C[C@H]3OCc2c(-c3c(Cl)cccc3Cl)noc2C2CC2)c(F)c1 [Compound I-225]
A: 8.70

Q: GET /values?readout=pEC50&item= O=C(NS(=O)(=O)C1CC1)c1ccc(N2C[C@@H]3C[C@H]2C[C@H]3OCc2c(-c3c(Cl)cccc3Cl)noc2C2(F)CC2)nc1 [Compound I-209]
A: 7.80

Q: If you can, please state the reported pEC50 value of O=C(O)c1cc([C@H]2CCOC2)c2nc(N3C[C@@H]4C[C@H]3C[C@H]4OCc3c(-c4c(Cl)cccc4Cl)noc3C3CC3)sc2c1 [Compound I-253] .
A: 9.80

Q: Which pEC50 is listed for O=C(O)c1ccc(N2C[C@@H]3C[C@H]2C[C@H]3OC(=O)c2c(-c3c(Cl)cccc3Cl)noc2C2CC2)cc1 [Compound I-42] ?
A: 7.40

Q: Consider the compound O=C(O)c1cc(O[C@H]2CCOC2)c2nc(N3C[C@@H]4C[C@H]3C[C@H]4OCc3c(-c4c(F)cccc4Cl)noc3C3CC3)sc2c1 [Compound I-267] and give its measured pEC50.
A: 9.00

Q: Data request, read-out pEC50, for Cc1cccc(Cl)c1-c1noc(C2CC2)c1CO[C@@H]1C[C@@H]2C[C@H]1CN2c1nc2c(C)cc(C(=O)O)cc2s1 [Compound I-269]
A: 9.20

Q: Entry under review: O=C(O)c1cc(F)c2nc(N3C[C@@H]4C[C@H]3C[C@H]4OCc3c(C4CCC5(CC4)CC5)noc3C3CC3)sc2c1 [Compound I-277] . Reported pEC50?
A: 6.80

Q: Which pEC50 reading was recorded for the compound O=P(O)(O)CCc1ccc(N2C[C@@H]3C[C@H]2C[C@H]3OCc2c(-c3c(Cl)cccc3Cl)noc2C2CC2)cc1 [Compound I-175] ?
A: 6.20

----------
Record form. Attribute: Emax. Fill in for each entry.
SYSTEM: human Farnesoid X receptor ligand-binding domain/Gal4 DNA binding domain chimera (Homo sapiens (Human))
MEASUREMENT_PROTOCOL: Cell-based assay of FXR activation (FXR-UAS-bla HEK 293T beta-lactamase reporter)
CONDITION_CONTEXT: HEK-293T; extent of activation relative to GW4064; cellular FXR beta-lactamase reporter assay; read-out: % Efficacy
Your answer should be a plain number; it is taken to be in %.

Q: What value of measured Emax is listed for "CS(=O)(=O)NC(=O)CCc1ccc(N2C[C@@H]3C[C@H]2C[C@H]3OCc2c(-c3c(F)cccc3Cl)noc2C2CC2)c(F)c1" ?
A: 94

Q: For "O=C(O)c1cc(OC(F)(F)F)c2nc(N3C[C@@H]4C[C@H]3C[C@H]4OCc3c(C4CCOCC4)noc3C3CC3)sc2c1" , what is its reported Emax?
A: 100

Q: Which measured Emax value corresponds to "O=C(CCc1ccc(N2C[C@@H]3C[C@H]2C[C@H]3OCc2c(-c3c(F)cccc3Cl)noc2C2CC2)c(F)c1)NS(=O)(=O)C1CCOCC1" ?
A: 94

Q: # get_value(readout='Emax', item= "O=C(O)c1cc(F)c2nc(N3C[C@@H]4C[C@H]3C[C@H]4OCc3c(-c4c(Cl)cc(O)cc4Cl)noc3C3CC3)sc2c1" )
A: 113

Q: Give the measured Emax of "O=C(O)c1cc(C(F)(F)F)c2nc(N3C[C@@H]4C[C@H]3C[C@H]4OCc3c(-c4c(Cl)cccc4Cl)noc3C3CC3)sc2c1" .
A: 104

Q: Name the recorded Emax for "CS(=O)(=O)NC(=O)c1ccc(N2C[C@@H]3C[C@H]2C[C@H]3OC(=O)c2c(-c3c(Cl)cccc3Cl)noc2C2CC2)c(F)c1" .
A: 119

----------
SYSTEM: human Farnesoid X receptor ligand-binding domain/Gal4 DNA binding domain chimera (Homo sapiens (Human))
MEASUREMENT_PROTOCOL: Cell-based assay of FXR activation (FXR-UAS-bla HEK 293T beta-lactamase reporter)
CONDITION_CONTEXT: HEK-293T; extent of activation relative to GW4064; cellular FXR beta-lactamase reporter assay; read-out: % Efficacy
Description: FXR activation was measured using a cell line and procedure obtained from Life Technologies (Cat # K1691). FXR-UAS-bla HEK 293T cells contain a human Farnesoid X receptor ligand-binding domain/Gal4 DNA binding domain chimera stably integrated into the CellSensor® UAS-bla HEK 293T cell line. […] Activation of FXR by bound ligands results in transcriptional activation of the beta-lactamase reporter gene, which is detected via assay of beta-lactamase activity. […]
QUANTITY: Emax (%)
Use % as the unit, but write only the number.

Q: Which Emax reading was recorded for the molecule "O=C(O)CCc1ccc(N2C[C@@H]3C[C@H]2C[C@H]3OCc2c(-c3c(Cl)cccc3Cl)noc2C2CC2)cc1" ?
A: 112

Q: Dear colleague, I am looking for the recorded Emax of the following molecule: "O=C(O)c1ccc(N2C(=O)[C@@H]3C[C@H]2C[C@H]3OCc2c(-c3c(Cl)cccc3Cl)noc2C2CC2)cc1C1CC1"
A: 113

Q: Which Emax reading was recorded for the molecule "CCCS(=O)(=O)NC(=O)c1ccc(N2C[C@@H]3C[C@H]2C[C@H]3OC(=O)c2c(-c3c(Cl)cccc3Cl)noc2C2CC2)c(F)c1" ?
A: 118

----------
SYSTEM: human Farnesoid X receptor ligand-binding domain/Gal4 DNA binding domain chimera (Homo sapiens (Human), UniProt Q96RI1)
MEASUREMENT_PROTOCOL: Cell-based assay of FXR activation (FXR-UAS-bla HEK 293T beta-lactamase reporter)
CONDITION_CONTEXT: cellular FXR beta-lactamase reporter assay, FXR-UAS-bla HEK 293T cells, 16 h; pEC50 = -log EC50
Field: pEC50. Provide a value for each of the molecules that follow.
FYI, pEC50 means -log10 of a concentration in mol per litre.

Q: What measured pEC50 goes with "O=C(NS(=O)(=O)C1CC1)c1ccc(N2C[C@@H]3C[C@H]2C[C@H]3OCc2c(-c3c(Cl)cccc3Cl)noc2C2CC2)c(F)c1" ?
A: 9.80

Q: Entry N#Cc1cc(F)c(N2C[C@@H]3C[C@H]2C[C@H]3OCc2c(-c3c(Cl)cccc3Cl)noc2C2CC2)c(F)c1 [Compound I-54a] has what pEC50?
A: 7.50

Q: Which pEC50 reading was recorded for the molecule "CS(=O)(=O)NC(=O)c1ccc(N2C[C@@H]3C[C@H]2C[C@H]3OC(=O)c2c(-c3c(Cl)cccc3Cl)noc2C2CC2)cc1" ?
A: 7.60

Q: Look at this molecule and give its reported pEC50. "O=C(O)c1ccc(N2C[C@@H]3C[C@H]2C[C@H]3OCc2c(-c3c(Cl)cccc3Cl)noc2C2CC2)cn1"
A: 8.00

Q: # query: pEC50 of entry "O=C(O)C1CN(Cc2ccc(N3C[C@@H]4C[C@H]3C[C@H]4OCc3c(-c4c(Cl)cccc4Cl)noc3C3CC3)cc2)C1"
A: 6.00

Q: Could you share which pEC50 value was measured for "O=C(NCCS(=O)(=O)O)c1ccc(N2C[C@@H]3C[C@H]2C[C@H]3OCc2c(-c3c(Cl)cccc3Cl)noc2C2CC2)cc1F" ?
A: 7.00

Q: Quick one: pEC50 of CC(=O)OC(C)CCS(=O)(=O)NC(=O)c1ccc(N2C[C@@H]3C[C@H]2C[C@H]3OCc2c(-c3c(Cl)cccc3Cl)noc2C2CC2)cc1 (stereo partly drawn) ?
A: 9.40

Q: Value lookup for pEC50; key = O=C(O)[C@@H]1CCc2cc(N3C[C@@H]4C[C@H]3C[C@H]4OCc3c(-c4c(Cl)cccc4Cl)noc3C3CC3)ccc2C1 (single isomer, unassigned)
A: 8.00

Q: Which pEC50 reading was recorded for the molecule "CCc1cc(N2C(=O)[C@@H]3C[C@H]2C[C@H]3OCc2c(-c3c(Cl)cccc3Cl)noc2C2CC2)ccc1C(=O)O" ?
A: 8.20

Q: GET /values?readout=pEC50&item= "O=C(NS(=O)(=O)C1CC1)c1ccc(N2C[C@H]3C[C@@H]2C[C@@H]3OCc2c(-c3c(Cl)cccc3Cl)noc2C2CC2)cc1"
A: 7.60

Q: What value of pEC50 has been recorded for this entry: "CC(C)c1cccc(F)c1-c1noc(C2CC2)c1CO[C@@H]1C[C@@H]2C[C@H]1C(=O)N2c1ccc(C(=O)O)cc1"
A: 8.10
